- MEASUREMENT TARGET: huFLT3-T227 stably expressed on Ramos cells (human) (UniProt P36888)
- TEST DETAILS: FACS on cells
Would you kindly list FACS geometric mean fold change over Jurkat parental for each of these binders?

Which FACS geometric mean fold change over Jurkat parental is reported for this binder? Polypeptide No. 268 (scFv, V domains shown) VH: QVQLVQSGAEVKKPGSSVKVSCKASGGTFSTYALSWVRQAPGQGLEWMGGVIPVFGTTDYAHKFQGRVTITADESTSTAYMELSSLRSEDTAVYYCASMIIFGAGGWDAYYFQEWGQGTLVTVSS VL: EIVMTQSPATLSVSPGERATLSCRASQSVNNNQLAWYQQKPGQAPRLLIYDTSSRATGIPARFSGSGSGTEFTLTISSLQSEDFAVYYCQQYDTSPYTFGQGTKVEIKR
< 2 fold

Which FACS geometric mean fold change over Jurkat parental is reported for this binder? Polypeptide No. 245 (scFv, V domains shown) VH: QVQLVQSGAEVKKPGSSVKVSCKASGYTFTGFYIHWVRQAPGQGLEWMGGVIPFFSRTIYAQKFQGRVTITADESTSTAYMELSSLRSEDTAVYYCAYGANGHLYGMDAWGQGTTVTVSS VL: EIVMTQSPATLSVSPGERATLSCRASQSVSSSYLAWYQQKPGQAPRLLIYGASTRATGIPARFSGSGSGTEFTLTISSLQSEDFAVYYCQQYSSSPLTFGQGTKVEIKR
< 2 fold

Which FACS geometric mean fold change over Jurkat parental is reported for this binder? Polypeptide No. 266 (scFv, V domains shown) VH: QVQLVQSGAEVKKPGSSVKVSCKASGYSLTELSIHWVRQAPGQGLEWMGGINPISGTANYAQKFQGRVTITADESTSTAYMELSSLRSEDTAVYYCARGTVRLNWFDPWGQGTLVTVSS VL: EIVMTQSPATLSVSPGERATLSCRASQSVGSQLGWYQQKPGQAPRLLIYGASTRATGIPARFSGSGSGTEFTLTISSLQSEDFAVYYCQQSFSTPLTFGGGTKVEIKR
< 2 fold
